experiment: NCI Yeast Anticancer Drug Screen. Data for the rad50 strain (AID 155);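 note: 0% = growth of vehicle-only cultures of the same strain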; settings: S. cerevisiae rad50 strain growth inhibition; at 50.0 µM unless noted
This is part of a sample that, as a whole, favours compounds with a hit. Of some 79,000 tested, about 15% had one in any assay. Active and inactive are the calls of the source. Cut-off read from the data, not from the text of the source: active = growth inhibition above about 70%; inactive = the rest.
Would you mind answering with one of these outcomes? true (active), false (inactive)

Observe how each entry below is paired with its result.
molecule	class.assignment
O=C1NCCN1/N=C/c1ccc([N+](=O)[O-])o1	false
OC(c1ccccc1)(c1ccccc1)C1/C(=C/c2ccccc2)C1Cc1ccccc1 (stereo not given)	false

Task item: # outcome recorded in this test, key = CC(=O)Oc1cc(S(=O)(=O)Nc2n[nH]c(N)n2)c(S)cc1Cl
Reply: false

Task item: For COC(=O)c1ccccc1-c1ccccc1C(=O)O , what call appears in the results of this test?
Reply: false

Task item: Record lookup: outcome of this test for Cc1c(NC(=O)CSC(=S)N(C)C)c(=O)n(-c2ccccc2)n1C ?
Reply: false

Task item: Dear all, I need the recorded test outcome for C/C(CC1=CCCCC1)=N\NC(N)=O , thank you.
Reply: false

Task item: # fetch the recorded call for Cc1cc(=O)n2nc(CCl)sc2n1 here
Reply: false

Task item: Any idea what this test logged for CC1=Nc2ccccc2C12C(c1ccccc1)C(c1ccccc1)C(=O)N1c3ccccc3CC12 (stereo not given) ?
Reply: false

====

test: NCI Yeast Anticancer Drug Screen. Data for the sgs1 mgt1 strain (AID 161);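 note: 0% = growth of cultures given vehicle only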; conditions: S. cerevisiae sgs1 mgt1 strain, active compounds read high; at 50.0 µM unless noted
The panel holds about 79,000 compounds, 15% with a hit somewhere; the sample as a whole holds those more often.
outcome.measure: growth inhibition (%)
Numbers only, in %.

Record excerpt, results attached:
molecule	outcome.measure	endpoint.value
O=C(Sc1ccc(Br)cc1)c1ccccc1	growth inhibition	1.15
CCCC(=O)CC(=O)C(F)(F)F.CCCC(=O)CC(=O)C(F)(F)F.CCCC(=O)CC(=O)C(F)(F)F.[Er]	growth inhibition	44.2
O=C(Cc1ccccc1)C(c1ccccc1)C(c1ccccc1)c1ccccc1 (stereo not given)	growth inhibition	5.25
CC1CC(=O)Nc2nc3ccccc3n21 (stereo not given)	growth inhibition	-25.2
COC(=O)c1ccc(-n2cc(C(=O)OC)c([N+]#N)c2[O-])cc1	growth inhibition	-13.6
CC(=O)OCC(O)CS(=O)c1ccc(C)cc1 (stereo not given)	growth inhibition	0.4

Batch: growth inhibition for all items listed.
1. CC(C)(C)NSc1nc2ccccc2s1
2. O=C(/C=C\c1ccc(Cl)c(Cl)c1)c1ccc(Cl)cc1Cl
3. CC(C)(C)OC(=O)NCC(=O)OC/C=C/c1ccccc1
4. O=C(NCC1CC1)c1cccs1
5. c1ccc(CC2=NCCO2)cc1
6. CC(C)(C(N)C(=O)O)C(N)C(=O)O (stereo not given)
7. Cn1cnc2[nH]c(=O)[nH]c(=O)c21
8. Cn1c2c(c3ccccc31)CCN(CCCCN1CCN(c3ccccc3)CC1)C2=O

Reply:
[-12.7, -4.6, 6.65, -18.9, -3.3, -17.4, -8.95, -36]

Report growth inhibition for every entry below.
1. O=C(O)CSCC(=O)Nc1ccccc1Cl
2. COc1ccc(C2=C(Cl)c3cc(OC)c(OC)cc3C2Cl)cc1 (stereo not given)
3. Cn1c2c(c(=O)c3cc(O)ccc31)CC(O)C(C)(C)O2 (stereo not given)
4. COc1ccc(CC2c3cc(OC)c(OC)cc3CC[N+]2(C)C)cc1OC (stereo not given)
5. COc1ccccc1NC(=O)C1=C(C)NC(C)=C(C(=O)Nc2ccccc2OC)C1c1ccccc1F
6. COC(=O)C1(C)C=C(Nc2ccccc2)C(=O)N1c1ccccc1 (stereo not given)

Reply:
[14.6, 21.2, -11.7, 1.6, 17.1, 6.2]

Provide the reported growth inhibition of each entry below, same order.
1. COc1c2c(c(OC)c3ccccc13)C(=O)C1=C(CC=CC1)C2=O
2. NCCCC(=S)S
3. NC(=S)Nc1ccc(-c2ccccc2)cc1
4. O=C1/C(=N\[O-])C(S(=O)(=O)[O-])=Cc2cc(S(=O)(=O)[O-])cc(O)c21.O=C1/C(=N\[O-])C(S(=O)(=O)[O-])=Cc2cc(S(=O)(=O)[O-])cc(O)c21.[Cu+2]
5. CCCCCCSC(=O)NC(C)=O

Reply:
1. -8.6
2. -0.75
3. 49.1
4. -0.65
5. 1.4

Hey, can you go through the list below and give me growth inhibition for every item?
1. O=C1CCCN(c2ccccc2)N1
2. Cc1[nH]c(=S)[nH]c1C
3. C[N+]1(CCN=C=NC2CCCCC2)CCOCC1
4. Cc1ccc(Nc2cc(C(=O)O)c(Nc3ccc(C)cc3)cc2C(=O)O)cc1
5. CSc1nc2c([nH]1)c(=O)n(C)c(=S)n2C
6. CC1=NCC[N+]1(CCc1ccccc1)Cc1ccccc1 (stereo not given)
7. Cc1ccc2cc(-c3ccccc3)[nH]c2c1

Reply:
[3.3, 12.2, 16.9, 12.3, -0.85, -19.8, -13.6]
